- Study System: Glucose-1-phosphate thymidylyltransferase (Pseudomonas aeruginosa (strain ATCC 15692 / DSM 22644 / CIP 104116 / JCM 14847 / LMG 12228 / 1C / PRS 101 / PAO1), UniProt Q9HU22)
- Sequence (Q9HU22 whole entry): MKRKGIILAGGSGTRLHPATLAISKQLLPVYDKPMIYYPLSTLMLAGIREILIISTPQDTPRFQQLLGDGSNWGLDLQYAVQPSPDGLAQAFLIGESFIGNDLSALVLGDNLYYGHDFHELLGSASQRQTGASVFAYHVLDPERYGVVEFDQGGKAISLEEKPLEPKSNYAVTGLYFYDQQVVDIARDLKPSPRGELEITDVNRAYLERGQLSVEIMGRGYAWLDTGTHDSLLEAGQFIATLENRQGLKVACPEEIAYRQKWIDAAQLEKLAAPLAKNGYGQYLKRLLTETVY
- Assay: Inhibition Assay
pIC50: −log10 of the molar value.
pIC50 vs 6: at or above is 1, below is 0.

> print(dat)
                              line.notation  label
1  CN(c1c(N)n(Cc2ccccc2)c(=O)[nH]c1=O)S(=O)(=O)c1ccccc1      1
2  CCCCn1c(N)c(N(C)S(=O)(=O)c2ccccc2)c(=O)[nH]c1=O      1
3  CCCN(c1c(N)n(Cc2ccccc2)c(=O)[nH]c1=O)S(=O)(=O)c1ccccc1      0
4  CCN(c1c(N)n(Cc2ccccc2)c(=O)[nH]c1=O)S(=O)(=O)c1ccccc1      1
5  CN(c1c(N)n(Cc2ccccc2)c(=O)[nH]c1=O)S(=O)(=O)c1ccco1      1
6  CN(C(=O)c1ccccc1)c1c(N)n(Cc2ccccc2)c(=O)[nH]c1=O      0
7  CCCCn1c(N)c(N(C)C(=O)c2ccco2)c(=O)[nH]c1=O      0
8         CNc1c(N)n(Cc2ccccc2)c(=O)[nH]c1=O      0

The measured values listed here are drawn from BindingDB's records for doi:10.1021/cb300426u.
